- assay target: T1, RSV postfusion F (postF), subtype A (respiratory syncytial virus subtype A, UniProt P03420 26-513)
- T1 construct: also called Postfusion subtype A; F deltaFP
- assay protocol: BLI, IgG
pKd: −log10 of the molar value.
endpoint label: pKd

ADI-19479 (antibody, V domains shown, full-length IgG) VH: QVQLVQSGAEVKKPGSSVKVSCKASGGTFSSNAINWVRQAPGQGLEWMGGIIPIFGTANYAQKFQGRVTITTDESTSTAYMELSSLRSEDTAVYYCATTFYYGSGADYWGQGTLVTVSS VL: DIQMTQSPLSLPVTLGQPASISCRSSQSLVYSDGNMYLSWFQQRPGQSPRRLIYKVSNRDSGVPDRFSGSGSGTDFTLKISRVEAEDVGVYYCMQGTHWWTFGQGTKVEIK: 8.43
ADI-14352 (antibody, V domains shown, full-length IgG; also called Ab 20) VH: EVQLLETGPGLVKPSQTLSLICAVSGGSISSGGYSWSWIRQPPGKGLEWVGYISYSGSTYYNPSLKSRVTISVDTSKNQFSLKLNSVTAADTAVYFCARVDGIYSSGMRFDYWGQGTLVTVSS VL: DIQLTQSPGTLSLSPGERATLSCRASQSVSSYYLAWYQQKPGQAPRLLIYGTSSRATGIPDRFSGSGSGTDFTLTISRLEPEDFAVYYCQQYGRSPLFGQGTRLEIK: 9.35

src = patent US20260258115A1
